- tgt: Muscarinic acetylcholine receptor M5 (Rattus norvegicus)
- Sequence (P08911 whole entry): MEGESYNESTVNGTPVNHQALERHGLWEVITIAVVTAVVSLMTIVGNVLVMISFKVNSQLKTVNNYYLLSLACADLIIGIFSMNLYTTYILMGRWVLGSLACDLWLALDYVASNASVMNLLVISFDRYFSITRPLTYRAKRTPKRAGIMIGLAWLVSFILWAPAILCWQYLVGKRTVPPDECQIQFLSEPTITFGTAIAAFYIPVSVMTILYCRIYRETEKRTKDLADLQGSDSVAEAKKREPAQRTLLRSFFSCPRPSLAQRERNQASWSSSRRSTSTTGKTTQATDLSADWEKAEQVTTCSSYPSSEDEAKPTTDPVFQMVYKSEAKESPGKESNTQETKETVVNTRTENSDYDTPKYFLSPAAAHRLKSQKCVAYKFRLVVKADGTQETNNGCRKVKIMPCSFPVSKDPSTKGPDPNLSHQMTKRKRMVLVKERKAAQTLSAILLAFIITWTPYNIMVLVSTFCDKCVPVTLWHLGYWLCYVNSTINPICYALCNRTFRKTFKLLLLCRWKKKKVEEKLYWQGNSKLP
- test.summary: Antagonist activity at rat muscarinic M5 receptor by calcium mobilization assay
pIC50: −log10 of the molar value.
attribute.measured: pIC50

Using the record for C[C@H]1CCCCN1c1ccc(N2CCN(S(=O)(=O)c3ccccc3Cl)CC2)nn1 , report its pIC50.
< 5.00

----------
- tgt: Muscarinic acetylcholine receptor M4 (Homo sapiens, UniProt P08173)
- Sequence (P08173 whole entry): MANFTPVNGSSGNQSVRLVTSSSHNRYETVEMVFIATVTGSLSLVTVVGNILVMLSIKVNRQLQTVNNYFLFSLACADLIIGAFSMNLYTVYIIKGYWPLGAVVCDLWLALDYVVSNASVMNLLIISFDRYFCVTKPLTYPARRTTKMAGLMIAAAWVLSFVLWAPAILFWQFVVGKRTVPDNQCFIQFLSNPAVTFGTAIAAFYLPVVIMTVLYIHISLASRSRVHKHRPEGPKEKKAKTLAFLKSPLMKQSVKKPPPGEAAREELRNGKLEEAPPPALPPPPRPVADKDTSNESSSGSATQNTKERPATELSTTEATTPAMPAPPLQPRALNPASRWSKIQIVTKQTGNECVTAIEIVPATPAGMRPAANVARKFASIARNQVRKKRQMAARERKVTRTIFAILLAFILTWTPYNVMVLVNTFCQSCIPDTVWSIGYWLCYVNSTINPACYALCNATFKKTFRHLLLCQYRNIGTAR
- test.summary: Antagonist activity at human recombinant muscarinic M4 receptor expressed in CHO cells co-transfected with Gqi5 in presence of EC80 acetylcholine by calcium mobilization assay
- Format: functional, cell-based
- condition.label: read-out: IC50
So I've got a bunch of compounds here, and I need their IC50 values.
Answers are plain numbers, in µM.

Some solved cases for reference:
- smiles.data: "Cc1noc(C)c1S(=O)(=O)N1CCN(c2ccc(N3CCCCCC3)nn2)CC1"
  unit.symbol: "µM"
  IC50: 0.43
- smiles.data: "C[C@H]1CCCCN1c1ccc(N2CCN(S(=O)(=O)C3CCCCC3)CC2)nn1"
  unit.symbol: "µM"
  IC50: 4.02
- smiles.data: "C[C@H]1CCCCN1c1ccc(N2CCN(S(=O)(=O)c3ccc4c(c3)OCO4)CC2)cc1"
  unit.symbol: "µM"
  IC50: 1.33

Using the record for Cc1noc(C)c1S(=O)(=O)N1CCN(c2ccc(N3CCCC[C@@H]3C)nn2)CC1 , report its IC50.
0.09

----------
- tgt: Muscarinic acetylcholine receptor M4 (Homo sapiens) (UniProt P08173)
- test.summary: Antagonist activity at human recombinant muscarinic M4 receptor expressed in CHO cells co-transfected with Gqi5 assessed as acetylcholine-induced response in presence of EC80 acetylcholine by calcium mobilization assay relative to untreated control
- Type: functional, cell-based
- Set-up: scale not given: the % may be the effect or the level left
So I've got a bunch of molecules here, and I need their Activity values.
Numbers only, in %.

Some solved cases for reference:
- molecule: "CC1(C)CCCN(c2ccc(N3CCN(S(=O)(=O)c4ccccc4Cl)CC3)nn2)C1"
  unit.symbol: "%"
  Activity: 5
- molecule: "CC1(C)CCCN(c2ccc(N3CCN(S(=O)(=O)c4ccc5c(c4)OCO5)CC3)nn2)C1"
  unit.symbol: "%"
  Activity: 14
- molecule: "O=S(=O)(c1ccccc1Cl)N1CCN(c2ccc(N3CCCCC3)nn2)CC1"
  unit.symbol: "%"
  Activity: 12
- molecule: "C[C@H]1CCCCN1c1ccc(N2CCN(S(=O)(=O)C3CCCCC3)CC2)nn1"
  unit.symbol: "%"
  Activity: 51
- molecule: "CC1CCCCN1c1ccc(N2CCN(S(=O)(=O)c3ccccc3Cl)CC2)nn1 (racemic)"
  unit.symbol: "%"
  Activity: 9.2
- molecule: "C[C@H]1CCCCN1c1ccc(N2CCN(S(=O)(=O)c3ccc4c(c3)OCO4)CC2)nn1"
  unit.symbol: "%"
  Activity: 9
- molecule: "C[C@H]1CCCCN1c1ccc(N2CCN(S(=O)(=O)c3ccccc3C(F)(F)F)CC2)nn1"
  unit.symbol: "%"
  Activity: 4
- molecule: "O=S(=O)(c1ccc2c(c1)OCO2)N1CCN(c2ccc(N3CCCCC3)nn2)CC1"
  unit.symbol: "%"
  Activity: 55
- molecule: "C[C@H]1CCCN1c1ccc(N2CCN(S(=O)(=O)c3ccccc3Cl)CC2)nn1"
  unit.symbol: "%"
  Activity: 9

Moving on to another molecule below.
Using the record for COc1ccccc1S(=O)(=O)N1CCN(c2ccc(N3CCCC[C@@H]3C)nn2)CC1 , report its Activity.
11

----------
- tgt: Muscarinic acetylcholine receptor M4 (Homo sapiens)
- Sequence (P08173 whole entry): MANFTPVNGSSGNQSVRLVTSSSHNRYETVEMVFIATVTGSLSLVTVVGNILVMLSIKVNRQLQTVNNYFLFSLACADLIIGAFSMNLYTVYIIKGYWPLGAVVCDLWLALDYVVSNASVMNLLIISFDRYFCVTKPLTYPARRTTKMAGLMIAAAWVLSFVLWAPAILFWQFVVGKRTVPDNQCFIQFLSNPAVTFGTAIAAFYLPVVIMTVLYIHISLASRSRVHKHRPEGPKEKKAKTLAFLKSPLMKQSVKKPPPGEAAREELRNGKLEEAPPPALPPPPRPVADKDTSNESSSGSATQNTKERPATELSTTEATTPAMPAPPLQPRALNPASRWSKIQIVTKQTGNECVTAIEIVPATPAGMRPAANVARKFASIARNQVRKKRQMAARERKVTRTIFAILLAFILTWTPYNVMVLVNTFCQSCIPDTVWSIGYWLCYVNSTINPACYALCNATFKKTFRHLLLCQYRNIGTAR
- test.summary: Antagonist activity at human recombinant muscarinic M4 receptor expressed in CHO cells co-transfected with Gqi5 in presence of EC80 acetylcholine by calcium mobilization assay
- Format: functional, cell-based
- condition.label: read-out: IC50
So I've got a bunch of compounds here, and I need their pIC50 values.
Answers are plain numbers, as −log10 of the molar value.

Some solved cases for reference:
- smiles.data: "C[C@H]1CCCCN1c1ccc(N2CCN(S(=O)(=O)c3cccc(Cl)c3)CC2)nn1"
  pIC50: 6.12
- smiles.data: "Cc1noc(C)c1S(=O)(=O)N1CCN(c2ccc(N3CCCC(C)(C)C3)nn2)CC1"
  pIC50: 6.92
- smiles.data: "COc1ccc(S(=O)(=O)N2CCN(c3ccc(N4CCCC[C@@H]4C)nn3)CC2)cc1OC"
  pIC50: 5.55
- smiles.data: "C[C@H]1CCCCN1c1ccc(N2CCN(S(=O)(=O)c3ccc(Cl)cc3)CC2)nn1"
  pIC50: 5.63

Using the record for C[C@H]1CCCCN1c1ccc(N2CCN(S(=O)(=O)c3nccn3C)CC2)nn1 , report its pIC50.
5.80

----------
- tgt: Muscarinic acetylcholine receptor M4 (Homo sapiens)
- test.summary: Antagonist activity at human recombinant muscarinic M4 receptor expressed in CHO cells co-transfected with Gqi5 assessed as acetylcholine-induced response in presence of EC80 acetylcholine by calcium mobilization assay relative to untreated control
- Format: functional, cell-based
- Set-up: scale not given: the % may be the effect or the level left
attribute.measured: Activity (%)
One number for each entry, in %.

Some solved cases for reference:
- smiles.data: "C[C@H]1CCCCN1c1ccc(N2CCN(S(=O)(=O)c3ccc(Cl)cc3)CC2)nn1"
  tgt: "Muscarinic acetylcholine receptor M4 (Homo sapiens)"
  Activity (%): 30
- smiles.data: "Cc1noc(C)c1S(=O)(=O)N1CCN(c2ccc(N3CCCC(C)(C)C3)nn2)CC1"
  tgt: "Muscarinic acetylcholine receptor M4 (Homo sapiens)"
  Activity (%): 12
- smiles.data: "C[C@H]1CCCCN1c1ccc(N2CCN(S(=O)(=O)c3ccc4ncccc4c3)CC2)nn1"
  tgt: "Muscarinic acetylcholine receptor M4 (Homo sapiens)"
  Activity (%): 7
- smiles.data: "O=S(=O)(c1ccc2c(c1)OCO2)N1CCN(c2ccc(N3CCCCCC3)nn2)CC1"
  tgt: "Muscarinic acetylcholine receptor M4 (Homo sapiens)"
  Activity (%): 20
- smiles.data: "C[C@H]1CCCCN1c1ccc(N2CCN(S(=O)(=O)c3ccccc3)CC2)nn1"
  tgt: "Muscarinic acetylcholine receptor M4 (Homo sapiens)"
  Activity (%): 8
- smiles.data: "C[C@H]1CCCCN1c1ccc(N2CCN(S(=O)(=O)c3cccc(Cl)c3)CC2)nn1"
  tgt: "Muscarinic acetylcholine receptor M4 (Homo sapiens)"
  Activity (%): 22
- smiles.data: "C[C@H]1CCCCN1c1ccc(N2CCN(S(=O)(=O)c3nccn3C)CC2)nn1"
  tgt: "Muscarinic acetylcholine receptor M4 (Homo sapiens)"
  Activity (%): 8
- smiles.data: "O=S(=O)(c1ccccc1Cl)N1CCN(c2ccc(N3CCCCCC3)nn2)CC1"
  tgt: "Muscarinic acetylcholine receptor M4 (Homo sapiens)"
  Activity (%): 6

// for each compound below, give its Activity
1. C[C@@H]1CCCCN1c1ccc(N2CCN(S(=O)(=O)c3ccccc3Cl)CC2)nn1
2. C[C@H]1CCCCN1c1ccc(N2CCN(S(=O)(=O)c3ccccc3Cl)CC2)nn1

1. 12
2. 4
